target: VEGFR-2 (Homo sapiens, UniProt P35968); assay: VEGFR-2 Western blot in MCF7; assay type: cell-based; settings: Western blot at MTT-IC50
Sequence (P35968 20-1356): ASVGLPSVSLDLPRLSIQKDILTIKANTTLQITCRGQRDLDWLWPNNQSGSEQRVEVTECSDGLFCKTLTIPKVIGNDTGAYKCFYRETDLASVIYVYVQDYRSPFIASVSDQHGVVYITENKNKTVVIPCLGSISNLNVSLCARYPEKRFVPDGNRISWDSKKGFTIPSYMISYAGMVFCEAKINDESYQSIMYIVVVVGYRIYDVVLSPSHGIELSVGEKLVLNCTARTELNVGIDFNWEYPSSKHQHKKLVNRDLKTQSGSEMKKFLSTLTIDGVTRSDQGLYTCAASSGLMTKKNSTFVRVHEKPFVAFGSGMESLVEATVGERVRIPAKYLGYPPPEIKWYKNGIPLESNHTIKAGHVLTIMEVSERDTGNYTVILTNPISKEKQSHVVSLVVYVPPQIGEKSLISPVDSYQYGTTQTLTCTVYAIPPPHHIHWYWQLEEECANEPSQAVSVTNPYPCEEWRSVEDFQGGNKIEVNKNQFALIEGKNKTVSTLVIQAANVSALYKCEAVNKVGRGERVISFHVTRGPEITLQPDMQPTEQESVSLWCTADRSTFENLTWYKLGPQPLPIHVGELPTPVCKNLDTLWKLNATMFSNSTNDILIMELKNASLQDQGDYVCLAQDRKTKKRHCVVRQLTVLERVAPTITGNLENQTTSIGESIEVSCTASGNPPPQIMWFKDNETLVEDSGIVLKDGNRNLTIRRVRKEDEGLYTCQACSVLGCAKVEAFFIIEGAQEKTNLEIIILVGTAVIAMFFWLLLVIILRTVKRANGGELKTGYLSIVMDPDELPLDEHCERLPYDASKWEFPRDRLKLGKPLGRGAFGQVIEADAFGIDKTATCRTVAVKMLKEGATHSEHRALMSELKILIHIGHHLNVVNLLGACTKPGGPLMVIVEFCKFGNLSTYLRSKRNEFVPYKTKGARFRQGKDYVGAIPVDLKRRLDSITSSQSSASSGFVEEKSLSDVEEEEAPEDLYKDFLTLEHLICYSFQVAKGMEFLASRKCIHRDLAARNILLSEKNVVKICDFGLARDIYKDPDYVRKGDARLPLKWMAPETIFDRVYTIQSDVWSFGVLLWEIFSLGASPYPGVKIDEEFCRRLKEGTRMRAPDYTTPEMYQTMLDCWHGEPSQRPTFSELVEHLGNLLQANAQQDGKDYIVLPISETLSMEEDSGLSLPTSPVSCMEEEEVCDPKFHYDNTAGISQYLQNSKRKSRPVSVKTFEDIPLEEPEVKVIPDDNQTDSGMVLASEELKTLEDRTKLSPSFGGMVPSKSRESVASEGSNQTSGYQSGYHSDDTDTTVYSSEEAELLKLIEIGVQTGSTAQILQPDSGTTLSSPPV
Consider the following compounds and their measured VEGFR2 MCF7 % Inhibition readings.
Give the value, in units of %, as a plain number.

Here is how some compounds turned out for VEGFR2 MCF7 % Inhibition.
| Compound | Measurement Unit | VEGFR2 MCF7 % Inhibition |
| --- | --- | --- |
| CC(=O)Oc1ccc(Cl)cc1C(=O)N1C/C(=C\c2ccc(Cl)cc2)C(=O)/C(=C/c2ccc(Cl)cc2)C1 [Compound 5k] | % | 59.7 |
| CC(=O)Oc1ccccc1C(=O)N1C/C(=C\c2ccc(Cl)cc2)C(=O)/C(=C/c2ccc(Cl)cc2)C1 [Compound 5c] | % | 59.5 |

Form: Entry = O=c1[nH]cc(F)c(=O)[nH]1 [Compound 5-FU, 5-fluorouracil, reference compound] | System = VEGFR-2 (Homo sapiens, UniProt P35968) | VEGFR2 MCF7 % Inhibition = ____
67.2

# credit: paper PMC8566089
